Assay: Growth inhibition of HPEN cells at 10 uM after 3 days
Type: cell-based
Details: human
Measure: inhibition at 72 h, 10 µM (%)

1. CSC(=O)C#CC(C)(C)N(C)C : 60
2. CSC(=O)C#CC(C)(C)N1CCOCC1 : 11

---

System: RH7777
Test: Growth inhibition of RH7777 cells
Type: functional, cell-based
Conditions: Rattus norvegicus
pIC50: −log10 of the molar value.
Measure: pIC50

1. CSC(=O)C#CC(C)(C)N(C)C : 5.00

---

Target: Aldehyde dehydrogenase 1 (Saccharomyces cerevisiae)
Test: Inhibition of ALDH1
pKi: −log10 of the molar value.
Measure: pKi

1. CSC(=O)C#CC(C)(C)N : 3.55

---

Assay: Growth inhibition of HPEN cells at 5 uM after 3 days
Assay type: cell-based
Settings: human
Measure: inhibition at 72 h, 5 µM

1. CSC(=O)C#CC(C)(C)N(C)C : 23%
2. CSC(=O)C#CC(C)(C)N1CCOCC1 : 6%

Origin of the recorded values: ChEMBL document CHEMBL1156669
